These entries and their values trace back to patent US8440825B2.

experiment: Stability studies of varenicline crystalline salts (one year storage, HPLC and XRD); format: physicochemical; details: after one year at room temperature, normal pressure, ambient atmosphere
Where a name gives a salt, the structure may show the parent alone.
Attribute: Purity (HPLC) % 1 year later
Measure name: Purity (HPLC) % 1 year later (%)

Molecule | Observed measurement
O=S(=O)(O)CCS(=O)(=O)O.c1cnc2cc3c(cc2n1)C1CNCC3C1.c1cnc2cc3c(cc2n1)C1CNCC3C1 [Example 18, Varenicline Hemi-1,2-Ethane Disulfonate] | 99.36
CC(O)C(=O)O.c1cnc2cc3c(cc2n1)C1CNCC3C1 (racemic) [Example 17, varenicline DL-lactate] | 98.48
O=C(O)CCCCC(=O)O.c1cnc2cc3c(cc2n1)C1CNCC3C1.c1cnc2cc3c(cc2n1)C1CNCC3C1 [Example 1, varenicline hemi-adipate] | 99.77
O=C(O)CC(=O)O.c1cnc2cc3c(cc2n1)C1CNCC3C1 [Example 9, varenicline malonate] | 99.45
O=C(O)CCC(=O)C(=O)O.c1cnc2cc3c(cc2n1)C1CNCC3C1 [Example 6, varenicline α-ketoglutarate] | 98.45
c1cnc2cc3c(cc2n1)[C@@H]1CNC[C@H]3C1 [Hydrochloride, varenicline hydrochloride, reference compound] | 99.68
O=C(O)CCCC(=O)O.c1cnc2cc3c(cc2n1)C1CNCC3C1 [Example 3, varenicline glutarate] | 97.90
O=C(O)C(O)c1ccccc1.c1cnc2cc3c(cc2n1)C1CNCC3C1 (racemic) [Example 10, varenicline DL-mandelate] | 95.55
